Each recorded value in this set is attributed to patent US12421225B2.

Molecular target: human Nav1.7 (Homo sapiens (Human), UniProt Q15858)
Sequence (Q15858 whole entry): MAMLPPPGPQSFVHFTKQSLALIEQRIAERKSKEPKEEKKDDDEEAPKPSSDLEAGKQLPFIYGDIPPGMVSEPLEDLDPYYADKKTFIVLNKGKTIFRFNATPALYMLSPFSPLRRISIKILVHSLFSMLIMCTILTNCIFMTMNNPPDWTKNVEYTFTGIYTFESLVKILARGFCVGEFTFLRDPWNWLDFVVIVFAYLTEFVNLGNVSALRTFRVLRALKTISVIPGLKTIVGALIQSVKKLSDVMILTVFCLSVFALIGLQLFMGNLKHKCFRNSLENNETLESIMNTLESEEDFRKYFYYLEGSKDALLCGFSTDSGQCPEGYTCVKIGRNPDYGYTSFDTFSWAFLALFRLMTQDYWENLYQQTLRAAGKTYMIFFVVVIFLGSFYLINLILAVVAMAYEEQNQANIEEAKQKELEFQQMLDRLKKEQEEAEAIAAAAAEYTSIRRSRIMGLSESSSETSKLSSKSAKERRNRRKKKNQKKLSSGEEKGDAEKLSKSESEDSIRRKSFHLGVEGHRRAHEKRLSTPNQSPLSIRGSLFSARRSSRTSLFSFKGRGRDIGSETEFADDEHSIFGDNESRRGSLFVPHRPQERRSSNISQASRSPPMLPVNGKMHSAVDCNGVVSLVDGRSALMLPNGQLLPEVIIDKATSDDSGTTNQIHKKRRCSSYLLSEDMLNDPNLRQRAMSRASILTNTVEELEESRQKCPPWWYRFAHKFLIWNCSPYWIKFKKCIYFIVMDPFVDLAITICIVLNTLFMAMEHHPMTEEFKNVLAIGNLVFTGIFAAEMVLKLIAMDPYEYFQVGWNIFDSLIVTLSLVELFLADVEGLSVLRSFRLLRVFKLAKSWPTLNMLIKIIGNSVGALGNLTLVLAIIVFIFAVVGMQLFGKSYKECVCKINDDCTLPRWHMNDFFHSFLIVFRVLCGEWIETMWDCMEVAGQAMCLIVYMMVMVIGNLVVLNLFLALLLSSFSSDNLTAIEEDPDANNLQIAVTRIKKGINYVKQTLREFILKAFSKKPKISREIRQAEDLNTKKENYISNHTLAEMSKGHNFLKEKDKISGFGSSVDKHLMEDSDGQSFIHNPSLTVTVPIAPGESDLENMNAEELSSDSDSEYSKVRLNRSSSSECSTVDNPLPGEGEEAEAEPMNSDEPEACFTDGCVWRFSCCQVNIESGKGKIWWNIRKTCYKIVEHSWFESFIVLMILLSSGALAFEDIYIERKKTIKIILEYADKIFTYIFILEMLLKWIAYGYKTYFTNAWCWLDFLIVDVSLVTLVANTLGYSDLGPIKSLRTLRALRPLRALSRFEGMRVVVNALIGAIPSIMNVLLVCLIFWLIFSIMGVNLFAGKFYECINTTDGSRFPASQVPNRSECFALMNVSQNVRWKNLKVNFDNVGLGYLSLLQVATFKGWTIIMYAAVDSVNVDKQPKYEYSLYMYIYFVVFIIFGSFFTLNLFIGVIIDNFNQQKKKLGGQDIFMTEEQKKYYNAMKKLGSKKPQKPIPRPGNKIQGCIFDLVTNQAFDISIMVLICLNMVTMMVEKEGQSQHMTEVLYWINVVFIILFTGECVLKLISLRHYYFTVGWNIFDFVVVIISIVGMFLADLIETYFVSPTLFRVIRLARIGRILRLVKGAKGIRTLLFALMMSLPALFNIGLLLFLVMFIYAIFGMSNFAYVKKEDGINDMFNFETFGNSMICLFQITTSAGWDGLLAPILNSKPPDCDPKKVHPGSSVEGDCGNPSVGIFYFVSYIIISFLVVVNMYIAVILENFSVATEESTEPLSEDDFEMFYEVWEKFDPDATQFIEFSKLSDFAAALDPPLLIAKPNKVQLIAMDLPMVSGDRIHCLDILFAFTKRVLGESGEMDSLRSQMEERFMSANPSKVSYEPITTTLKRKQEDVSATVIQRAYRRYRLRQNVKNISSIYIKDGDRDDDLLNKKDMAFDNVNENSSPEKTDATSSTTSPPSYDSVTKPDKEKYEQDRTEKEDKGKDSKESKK
Sequence (Q07699 19-218 partner): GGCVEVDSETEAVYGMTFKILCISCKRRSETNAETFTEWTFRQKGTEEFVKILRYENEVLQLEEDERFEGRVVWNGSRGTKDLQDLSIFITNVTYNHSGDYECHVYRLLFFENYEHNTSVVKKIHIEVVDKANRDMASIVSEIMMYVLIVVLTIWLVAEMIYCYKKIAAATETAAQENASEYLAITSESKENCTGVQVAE
Test: Human Nav1.7 inhibitory activity evaluation (automated patch clamp QPatch16X, HEK293A cells stably expressing human Nav1.7 and human Navβ1)
Type: cell-based
Conditions: HEK293A cells stably expressing human Nav1.7 and human Navβ1, automated patch clamp QPatch16X
pIC50: −log10 of the molar value.
Each entry below lists one item and its recorded pIC50 value.

[
  {
    "Compound": "CCCOCC1CCn2nc(C(=O)N[C@H]3COc4ccc(C#N)cc4C3)cc2O1 (single isomer, unassigned) [101 (isomer B)]",
    "pIC50": "> 5.00"
  },
  {
    "Compound": "O=C(N[C@H]1COc2ccccc2C1)c1cn2c(n1)CNC(c1ccc(F)c(F)c1)C2 (stereo partly shown)",
    "pIC50": "> 5.00"
  },
  {
    "Compound": "C[C@H]1CCn2nc(C(=O)N[C@H]3COc4ccc(Br)cc4C3)cc2O1",
    "pIC50": "> 6.00"
  },
  {
    "Compound": "O=C(N[C@H]1COc2ccc(Cl)cc2C1)c1nc2n(c1-c1ccccn1)CCOC2",
    "pIC50": "> 5.00"
  },
  {
    "Compound": "O=C(N[C@H]1COc2ccc(CC(F)F)cc2C1)c1cc2n(n1)CCC(COC(F)F)O2 (stereo partly shown) [Example 137]",
    "pIC50": "> 6.00"
  }
]

Input: Quick one: pIC50 of O=C(N[C@H]1COc2ccc(CC(F)F)cc2C1)c1cc2n(n1)CCC(COCC1CC1)O2 (single isomer, unassigned) [109 (isomer A)] ?
Output: > 6.00

Input: How about this compound: CCc1ccc2c(c1)C[C@@H](NC(=O)c1cc3n(n1)CCC(c1ccccc1F)O3)CO2 (stereo partly shown)
Output: > 6.00

---

Biological target: human Nav1.7 (Homo sapiens (Human))
Test: Human Nav1.7 inhibitory activity evaluation (automated patch clamp QPatch16X, HEK293A cells stably expressing human Nav1.7 and human Navβ1)
Assay type: cell-based
Details: human Nav1.7, automated patch clamp
Method: Test Example 1: Human Nav1.7 Inhibitory Activity Evaluation A cell line in which human Nav1.7 and human Navβ1 subunits were stably expressed in HEK293A cells was used. […] The amount of current through human Nav1.7 was recorded using a fully automatic patch clamp device QPatch16X (Sophion Biosciences) at room temperature. […]
Each entry below lists one item and its recorded IC50 value.

[
  {
    "Compound": "CC(C)(c1ccccn1)N1CCn2nc(C(=O)N[C@H]3COc4ccc(Cl)cc4C3)cc2C1",
    "Target Entity": "human Nav1.7 (Homo sapiens (Human))",
    "IC50": "< 1 µM"
  },
  {
    "Compound": "O=C(N[C@H]1COc2ccc(C(F)(F)F)cc2C1)c1nn2c(c1-c1cccc(CC(F)(F)F)n1)COCC2",
    "Target Entity": "human Nav1.7 (Homo sapiens (Human))",
    "IC50": "< 1 µM"
  }
]

Input: Quick one: IC50 of O=C(N[C@H]1COc2ccc(COCC(F)(F)F)cc2C1)c1cc2n(n1)CCN(CCOCC(F)(F)F)C2 ?
Output: < 1 µM

Input: How about this compound: N#Cc1ccc2c(c1)C[C@@H](NC(=O)c1cc3n(n1)CCC(CSCC(F)(F)F)O3)CO2 (stereo partly shown) [Example 422]
Output: < 10 µM

Input: How about this compound: N#Cc1ccc2c(c1)C[C@@H](NC(=O)c1cc3n(n1)CCN(CCC1CCC1)C3)CO2
Output: < 1 µM

Input: How about this compound: O=C(N[C@H]1COc2ccc(C(F)(F)F)cc2C1)c1nn2c(c1CCc1ccccn1)COCC2
Output: < 10 µM

Input: How about this compound: N#Cc1ccc2c(c1)C[C@@H](NC(=O)c1cc3n(n1)CCN(c1ccc(F)cc1)C3)CO2
Output: < 1 µM
